Each entry below carries its reported Kd.
# study system: CCL3L1_HUMAN (Homo sapiens, UniProt P16619)
# Sequence (P16619 24-93): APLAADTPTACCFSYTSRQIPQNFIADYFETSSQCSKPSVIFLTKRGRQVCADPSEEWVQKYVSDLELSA
# assay comment: Biolayer interferometry (BLI) binding
# unit: nM | format: bare number

• P1180_AMBTR: tick CKBP, Amblyomma triste (protein, Amblyomma triste) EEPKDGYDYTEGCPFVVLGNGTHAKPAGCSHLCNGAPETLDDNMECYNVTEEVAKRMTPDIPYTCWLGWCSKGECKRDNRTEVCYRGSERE = 2.2

Query: Entry P991_AMBCA: tick CKBP, Amblyomma cajennense (protein, Amblyomma cajennense) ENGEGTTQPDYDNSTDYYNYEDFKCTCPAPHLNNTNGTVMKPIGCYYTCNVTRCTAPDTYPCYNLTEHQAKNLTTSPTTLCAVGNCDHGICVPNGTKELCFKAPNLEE has what Kd?
Result: 1.4

Query: Return reported Kd; argument: P467_RHIPU: tick CKBP (evasin), Rhipicephalus pulchellus; RPU-01 stated identical (protein, listed as Rhipicephalus pulchellus) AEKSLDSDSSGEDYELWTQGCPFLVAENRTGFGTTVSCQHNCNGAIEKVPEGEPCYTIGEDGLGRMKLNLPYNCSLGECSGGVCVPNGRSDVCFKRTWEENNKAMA
Result: 0.524

FYI, the data here is from patent US20200247855A1.
